Values compiled from patent US20210388107A1.

Assay Target: T1, human SIRPα1 extracellular domain 1-370, Avi-FXa-Fc tag (human, biotinylated)
T1 construct: also called huSIRPα1; v2
T1 sequence (chain, as listed by the source limits assumed): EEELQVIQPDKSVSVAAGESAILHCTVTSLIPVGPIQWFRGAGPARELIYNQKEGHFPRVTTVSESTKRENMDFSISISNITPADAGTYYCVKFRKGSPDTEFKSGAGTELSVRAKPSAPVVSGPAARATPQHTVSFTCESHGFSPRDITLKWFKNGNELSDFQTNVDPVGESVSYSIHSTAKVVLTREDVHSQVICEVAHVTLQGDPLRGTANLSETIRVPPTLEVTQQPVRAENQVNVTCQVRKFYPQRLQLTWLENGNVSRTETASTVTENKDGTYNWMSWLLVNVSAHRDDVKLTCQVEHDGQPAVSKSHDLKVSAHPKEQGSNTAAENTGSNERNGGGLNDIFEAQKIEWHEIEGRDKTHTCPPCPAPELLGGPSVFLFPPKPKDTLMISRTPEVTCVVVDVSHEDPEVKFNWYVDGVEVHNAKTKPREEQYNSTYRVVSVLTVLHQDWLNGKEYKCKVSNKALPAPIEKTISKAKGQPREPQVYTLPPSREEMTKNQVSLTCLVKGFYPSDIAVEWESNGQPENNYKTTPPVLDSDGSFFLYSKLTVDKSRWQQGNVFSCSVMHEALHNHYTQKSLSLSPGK
Assay Remarks: SPR, captured biotinylated antigen
Assay Endpoint: Kd (nM)
Provide only the numeric value, understood in nM.

Provide one value: measured Kd of humanized anti-SIRPα antibody 9 (antibody, human IgG1, kappa, L234A L235A, V domains shown, human IgG1 LALA, kappa; also called mAb 9) VH: RQLVESGGGLVQPGGSLRLSCAASGFSLSSHGISWVRQAPGKGLEWVGTIGTGVITYYASWAKGRFTGSKTSSTAYLQMTSLRSEDTAVYYCARGSAWNDPFDYWGQGTLVTVSS VL: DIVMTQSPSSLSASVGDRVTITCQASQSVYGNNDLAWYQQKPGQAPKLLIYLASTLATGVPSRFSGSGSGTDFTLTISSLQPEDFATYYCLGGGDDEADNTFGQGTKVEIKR
0.0191
